Assay: Metabolic stability in mouse liver microsomes assessed as parent compound remaining at 10 uM measured after 60 mins
Type: ADME, Microsome
Conditions: read-out: Stability
readout-name: remaining at 1 h, 10 µM (%)

C[C@H](NC(=O)c1c(Cc2cccc(C(F)(F)F)c2)sc2c1CCOC2)c1ccc(C(=O)O)cc1    90.2

a. C[C@H](NC(=O)c1c(CCc2ccc(F)cc2)sc2c1CCC2)c1ccc(C(=O)O)cc1
b. C[C@H](NC(=O)c1c(CCc2ccc(F)cc2)sc2c1CCOC2)c1ccc(C(=O)O)cc1
# input Field: entry with larger remaining at 1 h, 10 µM (options a / b ). Returns: label corresponding to the selected item.
# output b
(b: 75.7%, a: 6.8%)

* * *

Biological target: CYP1A2 (Homo sapiens, UniProt P05177)
Sequence (P05177 whole entry): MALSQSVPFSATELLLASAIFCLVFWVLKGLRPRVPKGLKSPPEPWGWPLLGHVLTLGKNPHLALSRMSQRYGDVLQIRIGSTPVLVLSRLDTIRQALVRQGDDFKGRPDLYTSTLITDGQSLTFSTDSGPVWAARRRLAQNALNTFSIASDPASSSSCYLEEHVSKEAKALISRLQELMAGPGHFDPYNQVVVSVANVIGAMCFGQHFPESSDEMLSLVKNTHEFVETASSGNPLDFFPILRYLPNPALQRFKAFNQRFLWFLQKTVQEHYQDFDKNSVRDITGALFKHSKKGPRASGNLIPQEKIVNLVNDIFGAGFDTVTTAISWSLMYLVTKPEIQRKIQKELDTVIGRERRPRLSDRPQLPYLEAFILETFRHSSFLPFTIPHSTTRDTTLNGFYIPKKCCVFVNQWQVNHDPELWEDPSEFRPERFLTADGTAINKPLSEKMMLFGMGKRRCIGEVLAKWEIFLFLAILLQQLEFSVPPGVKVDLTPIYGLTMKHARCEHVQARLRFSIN
Assay: Inhibition of CYP1A2 (unknown origin) at 20 uM
Type: ADME
readout-name: inhibition at 20 µM (%)

1. C[C@H](NC(=O)c1c(CCc2ccc(F)cc2)sc2c1CCOC2)c1ccc(C(=O)O)cc1
2. C[C@H](NC(=O)c1c(C(F)F)nn(C)c1Oc1cccc(C(F)(F)F)c1)c1ccc(C(=O)O)cc1
# input Field: entry with larger inhibition at 20 µM (options 1 / 2 ). Returns: label corresponding to the selected item.
# output 1
(1: 88%, 2: 59%)

* * *

Molecular target: Prostaglandin E2 receptor EP4 subtype (Homo sapiens)
Sequence (P35408 whole entry): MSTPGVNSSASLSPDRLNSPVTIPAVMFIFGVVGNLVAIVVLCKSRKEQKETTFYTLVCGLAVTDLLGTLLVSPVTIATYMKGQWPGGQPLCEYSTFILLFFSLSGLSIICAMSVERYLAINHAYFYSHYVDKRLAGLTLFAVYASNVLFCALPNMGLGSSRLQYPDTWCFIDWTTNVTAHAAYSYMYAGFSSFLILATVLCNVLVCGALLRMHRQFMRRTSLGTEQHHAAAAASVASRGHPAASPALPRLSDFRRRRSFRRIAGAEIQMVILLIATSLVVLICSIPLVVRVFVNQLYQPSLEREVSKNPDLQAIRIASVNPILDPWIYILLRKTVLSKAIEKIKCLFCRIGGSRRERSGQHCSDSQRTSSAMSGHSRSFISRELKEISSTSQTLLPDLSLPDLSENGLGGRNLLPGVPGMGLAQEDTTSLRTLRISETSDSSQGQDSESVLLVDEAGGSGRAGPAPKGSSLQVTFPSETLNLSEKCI
Experiment: Antagonist activity at human EP4 receptor transfected in CHO/Galpha16 cells preincubated for 15 mins followed by PGE2 addition by calcium flux assay
pIC50: −log10 of the molar value.
readout-name: pIC50

CON(C)C(=O)c1ccc([C@H](C)NC(=O)c2c(Cc3ccc(F)cc3)sc3c2CCOC3)cc1    6.73
O=C(NCC1CCC(C(=O)O)CC1)c1c(Cc2ccc(F)cc2)sc2c1CCOC2 (centres undefined)    7.52
C[C@H](NC(=O)c1c(CCc2ccc(F)cc2)sc2c1CCOC2)c1ccc(C(=O)O)cc1    7.72
C[C@H](NC(=O)c1c(Cc2cccc(C(F)(F)F)c2)sc2c1CCOC2)c1ccc(C(=O)O)cc1    8.77
CCC1CCc2c(sc(CCc3ccc(F)cc3)c2C(=O)N[C@@H](C)c2ccc(C(=O)O)cc2)C1 (some centres undefined)    6.19
O=C(O)c1ccc(C2(NC(=O)c3c(Cc4cccc(C(F)(F)F)c4)sc4c3CCOC4)CC2)cc1    9.00
COc1cccc(C#Cc2sc3c(c2C(=O)N[C@@H](C)c2ccc(C(=O)O)cc2)CCOC3)c1    7.91
C[C@H](NC(=O)c1c(C#Cc2ccc(=O)[nH]c2)sc2c1CCOC2)c1ccc(C(=O)O)cc1    6.19
COc1ccc2cc(C#Cc3sc4c(c3C(=O)N[C@@H](C)c3ccc(C(=O)O)cc3)CCOC4)ccc2c1    7.57
C[C@H](NC(=O)c1c(CCc2ccc(F)cc2)sc2c1CCN(C(=O)OC(C)(C)C)C2)c1ccc(C(=O)O)cc1    6.50

a. C[C@H](NC(=O)c1c(CCc2ccc(F)cc2)sc2c1CCCC2)c1ccc(C(=O)O)cc1
b. C[C@H](NC(=O)c1c(Cc2ccc(F)cc2)sc2c1CCOC2)c1ccc(C(=O)NN)cc1
c. C[C@H](NC(=O)c1c(Cc2ccc(C(F)(F)F)cc2)sc2c1CCOC2)c1ccc(C(=O)O)cc1
d. C[C@H](NC(=O)c1c(Cc2cccc(F)c2)sc2c1CCOC2)c1ccc(C(=O)O)cc1
e. C[C@H](NC(=O)c1c(Cc2ccc(C(C)(C)C)cc2)sc2c1CCOC2)c1ccc(C(=O)O)cc1
# input Order field: pIC50 | Direction: descending (largest first) Lab note: record answer as labels in requested order.
# output c, d, e, a, b
(c: 8.68, d: 8.29, e: 8.02, a: 7.56, b: 7.13)

1. C[C@H](NC(=O)c1c(NCc2ccc(C(F)(F)F)cc2)sc2c1CCOC2)c1ccc(C(=O)O)cc1
2. COc1ccc(Cc2sc3c(c2C(=O)N[C@@H](C)c2ccc(C(=O)O)cc2)CCOC3)cc1
# input Consider entries 1 and 2 . Which has the numerically lower pIC50? Returns: label corresponding to the selected item.
# output 1

meta.source: ChEMBL document CHEMBL5154936
